Source: patent US20250188068A1

# pIC50 per record follows
- Assayed Target: human recombinant LPA1 expressed in CHO cells (Homo sapiens)
- Procedure Summary: FLIPR calcium mobilization assay, LPA1 antagonism in CHO-hLPA1 cells
- Condition Description: inhibition of LPA EC80 Ca2+ response, 30 min pre-incubation, range of activity
pIC50: −log10 of the molar value.

Asked: Recall the reported pIC50 of "C[C@@H](OC(=O)Nc1ncoc1-c1ccc(NC(=O)[C@@H]2[C@@H](C(=O)O)C2(F)F)cc1)c1ccccc1Cl" when tested on human recombinant LPA1 expressed in CHO cells (Homo sapiens).
Given back: 6.70 to 7.00

Asked: For human recombinant LPA1 expressed in CHO cells (Homo sapiens), give pIC50 of the listed compound: "Cc1nc(-c2onc(C)c2CNc2nccc(-c3cnccn3)n2)ccc1NC(=O)[C@@H]1[C@@H](C(=O)O)C1(F)F"
Given back: > 7.30

Asked: Provide pIC50, recorded with human recombinant LPA1 expressed in CHO cells (Homo sapiens), of Cc1nc(-c2onc(C)c2NC(=O)O[C@H](C)c2ccccc2Cl)ccc1CNC(=O)C1C(C(=O)O)C1(F)F (mixture of isomers) [Compound 17]
Given back: > 7.30

---

- Assayed Target: human recombinant LPA1 expressed in CHO cells (Homo sapiens, UniProt Q92633)
- Sequence (Q92633 whole entry): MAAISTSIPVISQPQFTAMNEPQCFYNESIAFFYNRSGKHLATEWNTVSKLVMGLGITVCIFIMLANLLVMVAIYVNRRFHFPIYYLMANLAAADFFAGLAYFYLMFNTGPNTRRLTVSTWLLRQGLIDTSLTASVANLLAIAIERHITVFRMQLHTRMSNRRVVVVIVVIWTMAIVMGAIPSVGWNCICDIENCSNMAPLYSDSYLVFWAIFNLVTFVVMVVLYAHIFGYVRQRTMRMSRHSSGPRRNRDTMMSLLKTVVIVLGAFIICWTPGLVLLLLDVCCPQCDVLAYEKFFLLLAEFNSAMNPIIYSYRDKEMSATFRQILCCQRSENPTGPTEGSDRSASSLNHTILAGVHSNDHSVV
- Procedure Summary: FLIPR calcium mobilization assay, LPA1 antagonism in CHO-hLPA1 cells
- Condition Description: inhibition of LPA EC80 Ca2+ response, 30 min pre-incubation, range of activity
pIC50: −log10 of the molar value.
Below, each entry is listed alongside its reported pIC50.

Solved entries:
{"Compound": "Cc1nc(-c2onc(C)c2NC(=O)O[C@H](C)c2ccccc2Cl)ccc1NC(=O)[C@@H]1[C@@H](C(=O)O)C1(F)F [Compound 1]", "Data Value": "> 7.30"}
{"Compound": "Cc1noc(-c2ccc(NC(=O)C3C(c4nnn[nH]4)C3(F)F)cc2)c1NC(=O)O[C@H](C)c1ccccc1Cl (mixture of isomers) [Compound 13]", "Data Value": "> 7.30"}

Turning now to a further record.
Asked: State pIC50 (human recombinant LPA1 expressed in CHO cells (Homo sapiens, UniProt Q92633)) of Cc1nc(-c2nnn(C)c2NC(=O)O[C@H](C)c2ccccc2Cl)ccc1NC(=O)C1C(C(=O)O)C1(F)F (single isomer, unassigned) [Compound 32] .
Given back: > 7.30

---

pIC50 listing for selected compounds.
- Assayed Target: human recombinant LPA1 expressed in CHO cells (Homo sapiens, UniProt Q92633)
- Procedure Summary: FLIPR calcium mobilization assay, LPA1 antagonism in CHO-hLPA1 cells
- Condition Description: inhibition of LPA EC80 Ca2+ response, 30 min pre-incubation, range of activity
pIC50: −log10 of the molar value.

Solved cases (5 shown):
{"Compound": "Cc1nc(-c2onc(C)c2NC(=O)O[C@H](C)c2ccccc2Cl)ccc1NC(=O)C1C(c2noc(=S)[nH]2)C1(F)F (stereo partly drawn) [Compound 41]", "Assayed Target": "human recombinant LPA1 expressed in CHO cells (Homo sapiens, UniProt Q92633)", "Quantity Name": "pIC50", "Data Value": "> 7.30"}
{"Compound": "Cc1nc(-c2onc(C)c2CNc2nccc(-c3cccnc3)n2)ccc1NC(=O)[C@@H]1[C@@H](C(=O)O)C1(F)F [Compound 25]", "Assayed Target": "human recombinant LPA1 expressed in CHO cells (Homo sapiens, UniProt Q92633)", "Quantity Name": "pIC50", "Data Value": "> 7.30"}
{"Compound": "Cc1nc(-c2onc(C)c2CNc2nccc(C3CCCCC3)n2)ccc1NC(=O)[C@@H]1[C@@H](C(=O)O)C1(F)F (racemic) [Compound 18]", "Assayed Target": "human recombinant LPA1 expressed in CHO cells (Homo sapiens, UniProt Q92633)", "Quantity Name": "pIC50", "Data Value": "> 7.30"}
{"Compound": "Cc1nc(-c2snc(C)c2NC(=O)O[C@H](C)c2ccccc2Cl)ccc1NC(=O)C1C(C(=O)O)C1(F)F (single isomer, unassigned; diastereomer 1) [Compound 31]", "Assayed Target": "human recombinant LPA1 expressed in CHO cells (Homo sapiens, UniProt Q92633)", "Quantity Name": "pIC50", "Data Value": "> 7.30"}
{"Compound": "Cc1noc(-c2ccc(N(C)C(=O)C3C(C(=O)O)C3(F)F)cc2)c1NC(=O)O[C@H](C)c1ccccc1Cl (single isomer, unassigned) [Compound 8]", "Assayed Target": "human recombinant LPA1 expressed in CHO cells (Homo sapiens, UniProt Q92633)", "Quantity Name": "pIC50", "Data Value": "6.70 to 7.00"}

Asked: Using known records, supply pIC50 for Cc1noc(-c2ccc(NC(=O)[C@@H]3[C@@H](C(=O)O)C3(F)F)cc2)c1COC(=O)N(C)C1CCCC1 (racemic) [Compound 36]
Given back: 6.70 to 7.00

---

- Assayed Target: human recombinant LPA1 expressed in CHO cells (Homo sapiens)
- Procedure Summary: FLIPR calcium mobilization assay, LPA1 antagonism in CHO-hLPA1 cells
- Condition Description: inhibition of LPA EC80 Ca2+ response, 30 min pre-incubation, range of activity
Let's look at some compounds and their measured IC50.

{"Compound": "Cc1nc(-c2onc(C)c2NC(=O)O[C@H](C)c2ccccc2Cl)ccc1NC(=O)C1C(c2nnn[nH]2)C1(F)F (mixture of isomers)", "Quantity Name": "IC50", "Data Value": "< 50 nM"}

Shift focus to the following entry.
Asked: Entry "C[C@@H](OC(=O)Nc1cccn1-c1ccc(NC(=O)[C@@H]2[C@@H](C(=O)O)C2(F)F)cc1)c1ccccc1Cl" needs its IC50 filled in; supply it.
Given back: 100 to 200 nM

---

- Assayed Target: human recombinant LPA1 expressed in CHO cells (Homo sapiens)
- Procedure Summary: FLIPR calcium mobilization assay, LPA1 antagonism in CHO-hLPA1 cells
- Condition Description: inhibition of LPA EC80 Ca2+ response, 30 min pre-incubation, range of activity
Let's look at some molecules and their measured IC50.

{"Molecule": "Cc1nc(-c2onc(C)c2NC(=O)O[C@H](C)c2ccccc2Cl)ccc1NC(=O)C1C(c2nsc(=O)[nH]2)C1(F)F (stereo partly shown)", "IC50": "< 50 nM"}

Asked: Give IC50 only, for "C[C@@H](OC(=O)Nc1c(-c2ccc(NC(=O)[C@@H]3[C@@H](C(=O)O)C3(F)F)cc2)nnn1C)c1ccccc1Cl" , using human recombinant LPA1 expressed in CHO cells (Homo sapiens) data.
Given back: < 50 nM

Asked: Give IC50; test system human recombinant LPA1 expressed in CHO cells (Homo sapiens); molecule Cc1noc(-c2ccc(N(C)C(=O)C3C(C(=O)O)C3(F)F)cc2)c1NC(=O)O[C@H](C)c1ccccc1Cl (single isomer, unassigned; diastereomer 2) [Compound 9]
Given back: 50 to 100 nM

Asked: Recall the reported IC50 of Cc1noc(-c2ccc(NC(=O)C3C(C(=O)O)C3(F)F)cn2)c1NC(=O)O[C@H](C)c1ccccc1Cl (single isomer, unassigned) on human recombinant LPA1 expressed in CHO cells (Homo sapiens) and write it down.
Given back: < 50 nM

Asked: Give IC50 for "Cc1nc(-c2onc(C)c2NC(=O)O[C@H](C)c2ccccc2Cl)ccc1NC(=O)[C@@H]1[C@@H](c2n[nH]c(=S)n2C)C1(F)F" tested on human recombinant LPA1 expressed in CHO cells (Homo sapiens).
Given back: 50 to 100 nM

Asked: Write down measured IC50 (human recombinant LPA1 expressed in CHO cells (Homo sapiens)) for this molecule. Cc1nc(-c2onc(C)c2Nc2cncc(OC(C)C)n2)ccc1NC(=O)C1C(C(=O)O)C1(F)F (single isomer, unassigned; diastereomer 2)
Given back: < 50 nM

Asked: Provide human recombinant LPA1 expressed in CHO cells (Homo sapiens) IC50 reading for "C[C@@H](OC(=O)Nc1cn(C)nc1-c1ccc(NC(=O)[C@@H]2[C@@H](C(=O)O)C2(F)F)cc1)c1ccccc1Cl" .
Given back: 100 to 200 nM

Asked: Tell me IC50 of Cc1nc(-c2onc(C)c2NC(=O)O[C@H](C)c2ccccc2Cl)ccc1NC(=O)C1C(C(=O)O)C1(F)F (stereo partly shown) when tested on human recombinant LPA1 expressed in CHO cells (Homo sapiens).
Given back: < 50 nM

Asked: Quote IC50 with test system human recombinant LPA1 expressed in CHO cells (Homo sapiens) for Cc1nc(-c2onc(C)c2NC(=O)O[C@H](C)c2ccccc2Cl)ccc1CNC(=O)C1C(C(=O)O)C1(F)F (mixture of isomers) [Compound 16]
Given back: 50 to 100 nM

Asked: Provide IC50, tested on human recombinant LPA1 expressed in CHO cells (Homo sapiens), for Cc1nc(-c2onc(C)c2CNc2nccc(C3CCCCC3)n2)ccc1NC(=O)C1C(C(=O)O)C1(F)F (single isomer, unassigned; enantiomer 1) .
Given back: < 50 nM

---

Each record here notes measured pIC50.
- Assayed Target: human recombinant LPA1 expressed in CHO cells (Homo sapiens, UniProt Q92633)
- Procedure Summary: FLIPR calcium mobilization assay, LPA1 antagonism in CHO-hLPA1 cells
- Condition Description: inhibition of LPA EC80 Ca2+ response, 30 min pre-incubation, range of activity
pIC50: −log10 of the molar value.

Some compounds with known pIC50 results, for comparison:
{"Compound": "Cc1nc(-c2onc(C)c2NC(=O)O[C@H](C)c2ccccc2Cl)ccc1NC(=O)C1C(c2noc(=O)[nH]2)C1(F)F (stereo partly drawn)", "pIC50": "> 7.30"}
{"Compound": "Cc1nc(-c2onc(C)c2CNc2nccc(-c3ccsc3)n2)ccc1NC(=O)[C@@H]1[C@@H](C(=O)O)C1(F)F", "pIC50": "> 7.30"}
{"Compound": "Cc1nc(-c2onc(C)c2CNc2nccc(-c3cccs3)n2)ccc1NC(=O)[C@@H]1[C@@H](C(=O)O)C1(F)F", "pIC50": "> 7.30"}
{"Compound": "Cc1nc(-c2onc(C)c2CNc2nccc(-c3ccco3)n2)ccc1NC(=O)[C@@H]1[C@@H](C(=O)O)C1(F)F", "pIC50": "6.70 to 7.00"}
{"Compound": "Cc1nc(-c2sccc2NC(=O)O[C@H](C)c2ccccc2Cl)ccc1NC(=O)C1C(C(=O)O)C1(F)F (single isomer, unassigned; diastereomer 2)", "pIC50": "6.70 to 7.00"}

Asked: Retrieve pIC50 measured for "Cc1nc(-c2onc(C)c2NC(=O)O[C@H](C)c2ccccc2Cl)ccc1NC(=O)[C@H]1[C@H](C(=O)O)C1(F)F" and print it.
Given back: > 7.30
